compounds and their reported EC50
Tested on: Q30R in genotype 1a NS5A replicon
procedureDetails: Resistance mutant replicon assay, genotype 1a NS5A Q30R
Assay type: cell-based, HCV
conditionDescription: Hepatitis C virus, read-out: 1a Q30R (nM)
Your answer should be a plain number; it is taken to be in nM.

Answered cases to consult:
1. COC(=O)N[C@H](C(=O)N1[C@@H](C)CC[C@H]1c1ncc(-c2ccc3c(c2)COc2cc4c(ccc5nc([C@@H]6CC[C@H](C)N6C(=O)[C@@H](NC(=O)OC)C6CCOCC6)[nH]c54)cc2-3)[nH]1)C1CCOCC1 [Comp 6, reference compound] = 0.042
2. COC(=O)N[C@H](C(=O)N1[C@@H](C)CC[C@H]1c1ncc(-c2ccc3c(c2)COc2cc4c(ccc5nc([C@@H]6C[C@@H]7CCC[C@@H]7N6C(=O)[C@@H](NC(=O)OC)C6CCOCC6)[nH]c54)cc2-3)[nH]1)C(C)C [Comp 10, reference compound] = 0.123
3. COC(=O)N[C@H](C(=O)N1[C@@H](C)CC[C@H]1c1ncc(-c2ccc3c(c2)COc2cc4c(ccc5nc([C@@H]6CC[C@H](C)N6C(=O)[C@@H](NC(=O)OC)[C@H]6CCCOC6)[nH]c54)cc2-3)[nH]1)C(C)C = 0.208

// moving on: another record for EC50
Input: Given the entry COC(=O)N[C@H](C(=O)N1[C@@H](C)CC[C@H]1c1ncc(-c2ccc3c(c2)COc2cc4c(ccc5nc([C@@H]6CCCN6C(=O)[C@@H](NC(=O)OC)C6CCOCC6)[nH]c54)cc2-3)[nH]1)C(C)C [Comp 14, reference compound] , what EC50 was observed with Q30R in genotype 1a NS5A replicon?
Output: 1.2

----------
procedureDetails: IV and PO single dose pharmacokinetic studies in SD rats
Assay type: in vivo
conditionDescription: Sprague-Dawley, rat, plasma, male SD rats, IV infusion 1 mg/kg, oral gavage 2 mg/kg, read-out: Rat % F
molecules and their reported bioavailability
Your answer should be a plain number; it is taken to be in %.

Answered cases to consult:
1. CC[C@H](C)[C@H](NC(=O)OC)C(=O)N1[C@@H](C)CC[C@H]1c1ncc(-c2ccc3c(c2)COc2cc4c(ccc5nc([C@@H]6CC[C@H](C)N6C(=O)[C@@H](NC(=O)OC)C6CCOCC6)[nH]c54)cc2-3)[nH]1 [Comp 4, reference compound] = 22.1
2. COC(=O)N[C@H](C(=O)N1[C@@H](C)CC[C@H]1c1ncc(-c2ccc3c(c2)COc2cc4c(ccc5nc([C@@H]6CC[C@H](C)N6C(=O)[C@@H](NC(=O)OC)C6CC(C)O[C@H](C)C6)[nH]c54)cc2-3)[nH]1)C(C)C (stereo in doubt) = 22.9
3. COC(=O)N[C@H](C(=O)N1[C@@H](C)CC[C@H]1c1ncc(-c2ccc3c(c2)COc2cc4c(ccc5nc([C@@H]6CC[C@H](C)N6C(=O)[C@@H](NC(=O)OC)[C@H]6C[C@@H](C)O[C@@H](C)C6)[nH]c54)cc2-3)[nH]1)C(C)C = 21.9

// moving on: another record for bioavailability
Input: Tell me the measured bioavailability of "COC(=O)N[C@H](C(=O)N1[C@@H](C)CC[C@H]1c1nc2ccc3cc4c(cc3c2[nH]1)OCc1cc(-c2cnc([C@@H]3CC[C@H](C)N3C(=O)[C@@H](NC(=O)OC)[C@H]3C[C@@H](C)O[C@@H](C)C3)[nH]2)ccc1-4)C(C)C" , please.
Output: 50.3

----------
compounds and their reported EC50
Test system: NS5A chimeric genotype 2a JFH-1 replicon with genotype 2a J6 strain NS5A gene (M31)
procedureDetails: HCV genotype 2a J6 NS5A chimeric replicon assay, transient (t)
Assay type: cell-based
conditionDescription: Hepatitis C virus, 72 h, read-out: 2a J6 (t) (nM)
Protocol: Evaluation of cell-based anti-HCV activity: Antiviral potency (EC50) was determined using a Renilla luciferase (RLuc)-based HCV replicon reporter assay. […] 72 hours later, cells were lysed and Renilla luciferase activity quantified as recommended by the manufacturer (Promega-Madison, Wis.). […]
Your answer should be a plain number; it is taken to be in nM.

Input: Tell me the measured EC50 of COC(=O)N[C@H](C(=O)N1[C@@H](C)CC[C@H]1c1ncc(-c2ccc3c(c2)COc2cc4c(cc2-3)CCc2nc([C@@H]3CC[C@H](C)N3C(=O)[C@@H](NC(=O)OC)C3C[C@@H](C)O[C@H](C)C3)[nH]c2-4)[nH]1)C1C[C@@H](C)O[C@H](C)C1 (stereo partly shown) [Example BF] , please.
Output: 0.035

Input: Tell me the measured EC50 of CC[C@H]1CC[C@@H](c2nc3ccc4cc5c(cc4c3[nH]2)OCc2cc(-c3cnc([C@@H]4CC[C@H](C)N4C(=O)[C@@H](NC(=O)OC)C(C)C)[nH]3)ccc2-5)N1C(=O)[C@@H](NC(=O)OC)[C@H]1CCCOC1 [Example AG] , please.
Output: 0.121

Input: Tell me the measured EC50 of CC[C@H]1C[C@@H](c2ncc(-c3ccc4c(c3)COc3cc5c(ccc6nc([C@@H]7CC[C@H](C)N7C(=O)[C@@H](NC(=O)OC)C(C)C)[nH]c65)cc3-4)[nH]2)N(C(=O)[C@@H](NC(=O)OC)C2C[C@@H](C)O[C@H](C)C2)C1 (stereo partly shown) [Example AE] , please.
Output: 0.042

Input: Tell me the measured EC50 of COC(=O)N[C@H](C(=O)N1[C@@H](C)CC[C@H]1c1nc2ccc3cc4c(cc3c2[nH]1)OCc1cc(-c2cnc([C@@H]3CC[C@H](C)N3C(=O)[C@@H](NC(=O)OC)C3(C)CCOCC3)[nH]2)ccc1-4)C(C)C [Example AL] , please.
Output: 0.776

----------
compounds and their reported EC50
Tested on: Q30R in genotype 1a NS5A replicon
procedureDetails: Resistance mutant replicon assay, genotype 1a NS5A Q30R
Assay type: cell-based, HCV
conditionDescription: Hepatitis C virus, read-out: 1a Q30R (nM)
Your answer should be a plain number; it is taken to be in nM.

1. CC[C@H](C)[C@H](NC(=O)OC)C(=O)N1[C@@H](C)CC[C@H]1c1nc2ccc3cc4c(cc3c2[nH]1)OCc1cc(-c2cnc([C@@H]3CC[C@H](C)N3C(=O)[C@@H](NC(=O)OC)C3CCOCC3)[nH]2)ccc1-4 [Comp 12, reference compound] = 1.28
2. COC(=O)N[C@H](C(=O)N1[C@@H](C)CC[C@H]1c1ncc(-c2ccc3c(c2)COc2cc4c(ccc5nc([C@@H]6CC[C@H](C)N6C(=O)[C@@H](NC(=O)OC)[C@@H]6CCCOC6)[nH]c54)cc2-3)[nH]1)C(C)C = 0.16

// moving on: another record for EC50
Input: Tell me the measured EC50 of CC[C@H](C)[C@H](NC(=O)OC)C(=O)N1[C@H](c2ncc(-c3ccc4c(c3)COc3cc5c(ccc6nc([C@@H]7CC[C@H](C)N7C(=O)[C@@H](NC(=O)OC)C7CCOCC7)[nH]c65)cc3-4)[nH]2)C[C@@H]2CCC[C@@H]21 [Comp 9, reference compound] , please.
Output: 0.26

----------
Test system: Q30E in genotype 1a NS5A replicon
procedureDetails: Resistance mutant replicon assay, genotype 1a NS5A Q30E
Assay type: cell-based, HCV
conditionDescription: Hepatitis C virus, read-out: 1a Q30E (nM)
outcomeMeasure: EC50 (nM)
Your answer should be a plain number; it is taken to be in nM.

Input: Tell me the measured EC50 of CC[C@H]1C[C@@H](c2nc3ccc4cc5c(cc4c3[nH]2)OCc2cc(-c3cnc([C@@H]4CC[C@H](C)N4C(=O)[C@@H](NC(=O)OC)C(C)C)[nH]3)ccc2-5)N(C(=O)[C@@H](NC(=O)OC)C2CCOCC2)C1 [Comp 1, reference compound] , please.
Output: 0.319

Input: Tell me the measured EC50 of CC[C@H](C)[C@H](NC(=O)OC)C(=O)N1[C@@H](C)CC[C@H]1c1ncc(-c2ccc3c(c2)COc2cc4c(ccc5nc([C@@H]6CC[C@H](C)N6C(=O)[C@@H](NC(=O)OC)C6C[C@@H](C)O[C@H](C)C6)[nH]c54)cc2-3)[nH]1 (stereo partly drawn) [Example AA] , please.
Output: 0.145

Input: Tell me the measured EC50 of COC(=O)N[C@H](C(=O)N1[C@@H](C)CC[C@H]1c1ncc(-c2ccc3c(c2)COc2cc4c(ccc5nc([C@@H]6CC[C@H](C)N6C(=O)[C@@H](NC(=O)OC)C6CCOCC6)[nH]c54)cc2-3)[nH]1)C(C)C [Comp 5, reference compound] , please.
Output: 0.297

----------
System: NS5A chimeric genotype 1b Con1 replicon with genotype 4a ED43 strain NS5A gene
procedureDetails: HCV genotype 4a NS5A chimeric replicon assay
Type: cell-based
conditionDescription: Hepatitis C virus, 72 h, read-out: 4a (s) (nM)
molecules and their reported EC50
Your answer should be a plain number; it is taken to be in nM.

Answered cases to consult:
1. CC[C@H]1CC[C@@H](c2nc3ccc4cc5c(cc4c3[nH]2)OCc2cc(-c3cnc([C@@H]4CC[C@H](C)N4C(=O)[C@@H](NC(=O)OC)C(C)C)[nH]3)ccc2-5)N1C(=O)[C@@H](NC(=O)OC)[C@H]1CCCOC1 [Example AG] = 0.014
2. CC[C@H]1CC[C@@H](c2nc3ccc4cc5c(cc4c3[nH]2)OCc2cc(-c3cnc([C@@H]4CC[C@H](C)N4C(=O)[C@@H](NC(=O)OC)C(C)C)[nH]3)ccc2-5)N1C(=O)[C@@H](NC(=O)OC)C1C[C@@H](C)O[C@H](C)C1 (stereo partly shown) [Example AC] = 0.005
3. CCOC(=O)N[C@H](C(=O)N1[C@@H](C)CC[C@H]1c1ncc(-c2ccc3c(c2)COc2cc4c(ccc5nc([C@@H]6CC[C@H](C)N6C(=O)[C@@H](NC(=O)OCC)C6C[C@@H](C)O[C@H](C)C6)[nH]c54)cc2-3)[nH]1)C1C[C@@H](C)O[C@H](C)C1 (stereo partly shown) [Example BM] = 0.039

Input: Tell me the measured EC50 of COC(=O)N[C@H](C(=O)N1[C@@H](C)CC[C@H]1c1ncc(-c2ccc3c(c2)COc2cc4c(ccc5nc([C@@H]6C[C@H](C)CN6C(=O)[C@@H](NC(=O)OC)C6C[C@@H](C)O[C@H](C)C6)[nH]c54)cc2-3)[nH]1)C(C)C (stereo partly shown) [Example AV] , please.
Output: 0.013
